tgt: T1, KIR3DL2 recombinant protein (R&D Systems) (human, UniProt P43630 28-340)
T1 construct: Bought protein; also called rec KIR3DL2; recombinant KIR3DL2-Fc fusion protein; not shown: Fc part of the bought fusion protein; not described
test.protocol: SCK kinetic method
measurement.name: Kd (nM)
Give bare numbers, in nM.

Kd reported for this binder Hum33-K32-15C11 (antibody, V domains shown, also called H3/L3; H3-L3) VH: EVQLVESGGGLVQPGGSLRLSCAASGFTFSDAWMDWVRQAPGKGLEWVAEIRSKANNHATYYAASVKGRFTISRDDSKNSVYLQMNSLKTEDTAVYYCTGGYYPVYWGQGTLVTVSS VL: DIQMTQSPSSLSASVGDRVTITCKASQDINKNIAWYQHKPGKAPKLLIHYTSTLQPGVPSRFSGSGSGRDYTFTISSLQPEDIATYYCLQYDNLLTFGGGTKVEIK : 0.33
